Values were extracted from patent US20080175801A1.

assay: Accelerated stability of flavor components in peroxide mouthrinse, measured by gas chromatography; assay type: physicochemical; conditions: formulation IB treated with polymer supported chelant; 40° C., 75% RH; component at 0.005%; vs day 0
Field: % Reduction at day 31, Treated. Provide a value for each of the molecules that follow.
Dear colleague, please return just the value in %, with no unit written.

q: # get_value(readout='% Reduction at day 31, Treated', item= C=C(C)C1CC=C(C)C(=O)C1 (centres unmarked) [Carvone] )
a: 20

q: # get_value(readout='% Reduction at day 31, Treated', item= CC=Cc1ccc(OC)cc1 [Anethole] )
a: 80

q: # get_value(readout='% Reduction at day 31, Treated', item= C=C(C)[C@H]1CC=C(C)CC1 [Limonene] )
a: 75

q: # get_value(readout='% Reduction at day 31, Treated', item= CCCCCCCCCC=O [Decanal] )
a: 75

q: # get_value(readout='% Reduction at day 31, Treated', item= CCCC(=O)OCC [Ethylbutyrate] )
a: 25

---

Field: % Reduction at day 17, Treated. Provide a value for each of the compounds that follow.
experiment: Accelerated stability of flavor components in peroxide mouthrinse, measured by gas chromatography; assay type: physicochemical; conditions: formulation IB treated with polymer supported chelant; 40° C., 75% RH; component at 0.005%; vs day 0
Dear colleague, please return just the value in %, with no unit written.

q: # get_value(readout='% Reduction at day 17, Treated', item= "C=C(C)[C@H]1CC=C(C)CC1" )
a: 75

q: # get_value(readout='% Reduction at day 17, Treated', item= "CC=Cc1ccc(OC)cc1" )
a: 60

q: # get_value(readout='% Reduction at day 17, Treated', item= C=C(C)C1CC=C(C)C(=O)C1 (centres unmarked) )
a: 20

q: # get_value(readout='% Reduction at day 17, Treated', item= "CCCCCCCCCC=O" )
a: 25

q: # get_value(readout='% Reduction at day 17, Treated', item= CCCC(=O)OCC [Ethylbutyrate] )
a: 25

---

test: Accelerated stability of flavor components in peroxide mouthrinse, measured by gas chromatography; assay type: physicochemical; conditions: Formula IA with Glass H polyphosphate radical scavenger; 40° C., 75% RH; component at 0.005%
Field: % Reduction at day 31, Formula IA. Provide a value for each of the molecules that follow.
Dear colleague, please return just the value in %, with no unit written.

q: # get_value(readout='% Reduction at day 31, Formula IA', item= CCCC(=O)OCC [Ethylbutyrate] )
a: 0

q: # get_value(readout='% Reduction at day 31, Formula IA', item= C=C(C)[C@H]1CC=C(C)CC1 [Limonene] )
a: 25

q: # get_value(readout='% Reduction at day 31, Formula IA', item= C=C(C)C1CC=C(C)C(=O)C1 (centres unmarked) [Carvone] )
a: 50

q: # get_value(readout='% Reduction at day 31, Formula IA', item= CCCCCCCCCC=O [Decanal] )
a: 40

q: # get_value(readout='% Reduction at day 31, Formula IA', item= CC=Cc1ccc(OC)cc1 [Anethole] )
a: 80

---

assay: Accelerated stability of flavor components in peroxide mouthrinse, measured by gas chromatography; type: physicochemical; conditions: formulation IB untreated; 40° C., 75% RH; component at 0.005%; vs day 0
Field: % Reduction at day 17, Untreated. Provide a value for each of the compounds that follow.
Dear colleague, please return just the value in %, with no unit written.

q: # get_value(readout='% Reduction at day 17, Untreated', item= "CC=Cc1ccc(OC)cc1" )
a: 100

q: # get_value(readout='% Reduction at day 17, Untreated', item= "C=C(C)[C@H]1CC=C(C)CC1" )
a: 100

q: # get_value(readout='% Reduction at day 17, Untreated', item= "CCCCCCCCCC=O" )
a: 80

q: # get_value(readout='% Reduction at day 17, Untreated', item= CCCC(=O)OCC [Ethylbutyrate] )
a: 20

q: # get_value(readout='% Reduction at day 17, Untreated', item= C=C(C)C1CC=C(C)C(=O)C1 (centres unmarked) )
a: 20
